System: NCI-H522
test-method-notes: relative viability (nuclei count vs DMSO), 5 days (fraction); higher = more cells survive
measurement-setup: first compound 0.04 µM
value-type: relative viability
Answers are plain numbers.

Example compounds with recorded relative viability:
1. O=C(O)c1ccc(-c2c[nH]c3ncc(-c4ccccc4)cc23)cc1C1CCCC1 + CC(=O)c1c(C)c2cnc(Nc3ccc(N4CCNCC4)cn3)nc2n(C2CCCC2)c1=O [Palbociclib] (partner 0.5 µM)	0.977
2. O=C(O)c1ccc(-c2c[nH]c3ncc(-c4ccccc4)cc23)cc1C1CCCC1 + NC(=O)Nc1cc(-c2cccc(F)c2)sc1C(=O)N[C@H]1CCCNC1 [AZD7762] (partner 0.2 µM)	0.662

Moving on to another compound below.
Summary for this compound, O=C(O)c1ccc(-c2c[nH]c3ncc(-c4ccccc4)cc23)cc1C1CCCC1 + CCNC(=O)c1noc(-c2cc(C(C)C)c(O)cc2O)c1-c1ccc(CN2CCOCC2)cc1 [Luminespib] (partner 0.01 µM) : relative viability is 1.37

###

Please provide measured relative viability for the entries that follow.
Tested on: PC-3 [JPC-3]
test-method-notes: relative viability (nuclei count vs DMSO), 5 days (fraction); higher = more cells survive
measurement-setup: first compound 0.08 µM
Answers are plain numbers.

Example compounds with recorded relative viability:
1) Oc1nc(-c2ccc(C(F)(F)F)cc2)nc2c1CSCC2 [XAV939] + CCNC(=O)c1noc(-c2cc(C(C)C)c(O)cc2O)c1-c1ccc(CN2CCOCC2)cc1 [Luminespib] (partner 0.01 µM)	0.829
2) Oc1nc(-c2ccc(C(F)(F)F)cc2)nc2c1CSCC2 [XAV939] + Cc1nc(NC(=O)N2CCC[C@H]2C(N)=O)sc1-c1ccnc(C(C)(C)C(F)(F)F)c1 [Alpelisib] (partner 2 µM)	1
3) C=C1C(=O)O[C@@H](CCCCCCCC)[C@@H]1C(=O)O [C-75] + Cc1nc(NC(=O)N2CCC[C@H]2C(N)=O)sc1-c1ccnc(C(C)(C)C(F)(F)F)c1 [Alpelisib] (partner 2 µM)	1.02
4) C=C1C(=O)O[C@@H](CCCCCCCC)[C@@H]1C(=O)O [C-75] + CCNC(=O)c1noc(-c2cc(C(C)C)c(O)cc2O)c1-c1ccc(CN2CCOCC2)cc1 [Luminespib] (partner 0.01 µM)	0.678
5) C=C1C(=O)O[C@@H](CCCCCCCC)[C@@H]1C(=O)O [C-75] + Nc1nc2[nH]cc(CCc3ccc(C(=O)N[C@@H](CCC(=O)O)C(=O)O)cc3)c2c(=O)[nH]1 [Pemetrexed] (partner 0.2 µM)	1.07
6) Oc1nc(-c2ccc(C(F)(F)F)cc2)nc2c1CSCC2 [XAV939] + CC1(C)CCC(c2ccc(Cl)cc2)=C(CN2CCN(c3ccc(C(=O)NS(=O)(=O)c4ccc(N[C@H](CCN5CCOCC5)CSc5ccccc5)c(S(=O)(=O)C(F)(F)F)c4)cc3)CC2)C1 [Navitoclax] (partner 0.5 µM)	0.728

Moving on to another compound below.
Summary for this compound, C=C1C(=O)O[C@@H](CCCCCCCC)[C@@H]1C(=O)O [C-75] + Cc1nc(Nc2ncc(C(=O)Nc3c(C)cccc3Cl)s2)cc(N2CCN(CCO)CC2)n1 [Dasatinib] (partner 0.075 µM) : relative viability is 1.01

###

System: COR-L 105
test-method-notes: relative viability (nuclei count vs DMSO), 5 days (fraction); higher = more cells survive
measurement-setup: first compound 0.8 µM
value-type: relative viability
Give bare numbers.

Example molecules with recorded relative viability:
1. Oc1nc(-c2ccc(C(F)(F)F)cc2)nc2c1CSCC2 [XAV939] + Cc1nc(Nc2ncc(C(=O)Nc3c(C)cccc3Cl)s2)cc(N2CCN(CCO)CC2)n1 [Dasatinib] (partner 0.075 µM)	0.315
2. C=C1C(=O)O[C@@H](CCCCCCCC)[C@@H]1C(=O)O [C-75] + CS(=O)(=O)CCNCc1ccc(-c2ccc3ncnc(Nc4ccc(OCc5cccc(F)c5)c(Cl)c4)c3c2)o1 [Lapatinib] (partner 2 µM)	0.374

Moving on to another molecule below.
Summary for this molecule, Oc1nc(-c2ccc(C(F)(F)F)cc2)nc2c1CSCC2 [XAV939] + Nc1nc2[nH]cc(CCc3ccc(C(=O)N[C@@H](CCC(=O)O)C(=O)O)cc3)c2c(=O)[nH]1 [Pemetrexed] (partner 0.2 µM) : relative viability is 1.03

###

Test system: NCI-H1734
test-method-notes: relative viability (nuclei count vs DMSO), 5 days (fraction); higher = more cells survive
measurement-setup: first compound 0.1 µM
value-type: relative viability

1. NC(=O)Nc1cc(-c2cccc(F)c2)sc1C(=O)N[C@H]1CCCNC1 [AZD7762] + COc1cccc2cc(-c3nc([C@H]4CC[C@H](C(=O)O)CC4)n4ncnc(N)c34)[nH]c12 [OSI-027] (partner 0.5 µM)	0.642
2. NC(=O)Nc1cc(-c2cccc(F)c2)sc1C(=O)N[C@H]1CCCNC1 [AZD7762] + CC1(C)CCC(c2ccc(Cl)cc2)=C(CN2CCN(c3ccc(C(=O)NS(=O)(=O)c4ccc(N[C@H](CCN5CCOCC5)CSc5ccccc5)c(S(=O)(=O)C(F)(F)F)c4)cc3)CC2)C1 [Navitoclax] (partner 0.5 µM)	0.978
3. NC(=O)Nc1cc(-c2cccc(F)c2)sc1C(=O)N[C@H]1CCCNC1 [AZD7762] + COc1cc2c(Oc3ccc(NC(=O)C4(C(=O)Nc5ccc(F)cc5)CC4)cc3F)ccnc2cc1OCCCN1CCOCC1 [Foretinib] (partner 0.25 µM)	0.929

Moving on to another compound below.
Summary for this compound, NC(=O)Nc1cc(-c2cccc(F)c2)sc1C(=O)N[C@H]1CCCNC1 [AZD7762] + Nc1ncn([C@H]2C[C@H](O)[C@@H](CO)O2)c(=O)n1 [Decitabine] (partner 2 µM) : relative viability is 0.51

###

Tested on: COR-L23
test-method-notes: relative viability (nuclei count vs DMSO), 5 days (fraction); higher = more cells survive
measurement-setup: first compound 0.08 µM
value-type: relative viability
Numbers only.

Example compounds with recorded relative viability:
1) C=C1C(=O)O[C@@H](CCCCCCCC)[C@@H]1C(=O)O [C-75] + CS(=O)(=O)N1CCN(Cc2cc3nc(-c4cccc5[nH]ncc45)nc(N4CCOCC4)c3s2)CC1 [Pictilisib] (partner 1 µM)	0.663
2) Oc1nc(-c2ccc(C(F)(F)F)cc2)nc2c1CSCC2 [XAV939] + Nc1ncn([C@H]2C[C@H](O)[C@@H](CO)O2)c(=O)n1 [Decitabine] (partner 2 µM)	0.444
3) C=C1C(=O)O[C@@H](CCCCCCCC)[C@@H]1C(=O)O [C-75] + O=C(c1cc(Cc2n[nH]c(=O)c3ccccc23)ccc1F)N1CCN(C(=O)C2CC2)CC1 [Olaparib] (partner 8 µM)	0.353
4) Oc1nc(-c2ccc(C(F)(F)F)cc2)nc2c1CSCC2 [XAV939] + O=C(c1cc(Cc2n[nH]c(=O)c3ccccc23)ccc1F)N1CCN(C(=O)C2CC2)CC1 [Olaparib] (partner 8 µM)	0.321
5) C=C1C(=O)O[C@@H](CCCCCCCC)[C@@H]1C(=O)O [C-75] + N=C(N)NC(=N)NCCc1ccccc1 [Phenformin] (partner 250 µM)	0.44

Moving on to another compound below.
Summary for this compound, Oc1nc(-c2ccc(C(F)(F)F)cc2)nc2c1CSCC2 [XAV939] + CS(=O)(=O)N1CCN(Cc2cc3nc(-c4cccc5[nH]ncc45)nc(N4CCOCC4)c3s2)CC1 [Pictilisib] (partner 1 µM) : relative viability is 1.05

###

Please provide measured relative viability for the entries that follow.
Tested on: NCI-H1437
test-method-notes: relative viability (nuclei count vs DMSO), 5 days (fraction); higher = more cells survive
measurement-setup: first compound 1.265 µM

Example molecules with recorded relative viability:
1) O=C(O)c1ccc(-c2c[nH]c3ncc(-c4ccccc4)cc23)cc1C1CCCC1 + CC1(C)CCC(c2ccc(Cl)cc2)=C(CN2CCN(c3ccc(C(=O)NS(=O)(=O)c4ccc(N[C@H](CCN5CCOCC5)CSc5ccccc5)c(S(=O)(=O)C(F)(F)F)c4)cc3)CC2)C1 [Navitoclax] (partner 0.5 µM)	0.407
2) O=C(O)c1ccc(-c2c[nH]c3ncc(-c4ccccc4)cc23)cc1C1CCCC1 + O=C(c1cc(Cc2n[nH]c(=O)c3ccccc23)ccc1F)N1CCN(C(=O)C2CC2)CC1 [Olaparib] (partner 8 µM)	0.279

Moving on to another molecule below.
Summary for this molecule, O=C(O)c1ccc(-c2c[nH]c3ncc(-c4ccccc4)cc23)cc1C1CCCC1 + NC(=O)Nc1cc(-c2cccc(F)c2)sc1C(=O)N[C@H]1CCCNC1 [AZD7762] (partner 0.2 µM) : relative viability is 0.934

###

Tested on: HCC-44
test-method-notes: relative viability (nuclei count vs DMSO), 5 days (fraction); higher = more cells survive
measurement-setup: first compound 0.5 µM
value-type: relative viability
Answers are plain numbers.

Example compounds with recorded relative viability:
1. CC1(C)CCC(c2ccc(Cl)cc2)=C(CN2CCN(c3ccc(C(=O)NS(=O)(=O)c4ccc(N[C@H](CCN5CCOCC5)CSc5ccccc5)c(S(=O)(=O)C(F)(F)F)c4)cc3)CC2)C1 [Navitoclax] + CS(=O)(=O)CCNCc1ccc(-c2ccc3ncnc(Nc4ccc(OCc5cccc(F)c5)c(Cl)c4)c3c2)o1 [Lapatinib] (partner 2 µM)	1.04
2. CC1(C)CCC(c2ccc(Cl)cc2)=C(CN2CCN(c3ccc(C(=O)NS(=O)(=O)c4ccc(N[C@H](CCN5CCOCC5)CSc5ccccc5)c(S(=O)(=O)C(F)(F)F)c4)cc3)CC2)C1 [Navitoclax] + Cc1cc(Nc2cc(N3CCN(C)CC3)nc(Sc3ccc(NC(=O)C4CC4)cc3)n2)n[nH]1 [Tozasertib] (partner 0.1 µM)	0.613
3. CC1(C)CCC(c2ccc(Cl)cc2)=C(CN2CCN(c3ccc(C(=O)NS(=O)(=O)c4ccc(N[C@H](CCN5CCOCC5)CSc5ccccc5)c(S(=O)(=O)C(F)(F)F)c4)cc3)CC2)C1 [Navitoclax] + O=C(c1cc(Cc2n[nH]c(=O)c3ccccc23)ccc1F)N1CCN(C(=O)C2CC2)CC1 [Olaparib] (partner 8 µM)	0.932
4. CC1(C)CCC(c2ccc(Cl)cc2)=C(CN2CCN(c3ccc(C(=O)NS(=O)(=O)c4ccc(N[C@H](CCN5CCOCC5)CSc5ccccc5)c(S(=O)(=O)C(F)(F)F)c4)cc3)CC2)C1 [Navitoclax] + CC(=O)c1c(C)c2cnc(Nc3ccc(N4CCNCC4)cn3)nc2n(C2CCCC2)c1=O [Palbociclib] (partner 0.5 µM)	0.956
5. CC1(C)CCC(c2ccc(Cl)cc2)=C(CN2CCN(c3ccc(C(=O)NS(=O)(=O)c4ccc(N[C@H](CCN5CCOCC5)CSc5ccccc5)c(S(=O)(=O)C(F)(F)F)c4)cc3)CC2)C1 [Navitoclax] + CC(C)C[C@H](NC(=O)[C@H](Cc1ccccc1)NC(=O)c1cnccn1)B(O)O [Bortezomib] (partner 0.002 µM)	0.882

Moving on to another compound below.
Summary for this compound, CC1(C)CCC(c2ccc(Cl)cc2)=C(CN2CCN(c3ccc(C(=O)NS(=O)(=O)c4ccc(N[C@H](CCN5CCOCC5)CSc5ccccc5)c(S(=O)(=O)C(F)(F)F)c4)cc3)CC2)C1 [Navitoclax] + CCNC(=O)c1noc(-c2cc(C(C)C)c(O)cc2O)c1-c1ccc(CN2CCOCC2)cc1 [Luminespib] (partner 0.01 µM) : relative viability is 0.823
